Provenance of the data: the Immune Epitope Database (IEDB)

target: HLA-A*01:01
experiment summary: IEDB peptide-MHC binding, purified MHC/competitive/fluorescence; filed as Kd, often an IC50 or EC50 that approximates it; bounds were set here for any values at or beyond the usual limits of such assays
condition details: source organism: Pseudomonas sp. MIS38
measurement type: Kd

For reference, reported Kd for `YMLKDSAPT` stands at ≥ 20 µM

###

target: HLA-B*15:09
experiment summary: IEDB peptide-MHC binding, purified MHC/direct/fluorescence; filed as Kd, often an IC50 or EC50 that approximates it; bounds were set here for any values at or beyond the usual limits of such assays
condition details: source organism: Burkholderia mallei ATCC 23344
pKd: −log10 of the molar value.
measurement type: pKd

Recorded pKd for `GEELPTVVL` on HLA-B*15:09 was ≤ 4.70
